# measured-on: PRKCG (human) (UniProt P05129)
# assay-remarks: radiometric filter-binding kinase assay
# settings: compound 1.0 µM
Let's look at some molecules and their measured residual activity.

Answered examples (4):
CN(C)C/C=C/C(=O)Nc1cccc(C(=O)Nc2ccc(Nc3nccc(-c4cccnc4)n3)cc2)c1: 101%
COc1cc(O)c2c(c1)[C@H]1OC1C[C@H](O)[C@H](O)C(=O)/C=C\C[C@H](C)OC2=O (stereo not given in full): 89%
NCC(=O)Nc1ccc(-n2nc(C(F)(F)F)cc2-c2ccc3c(ccc4ccccc43)c2)cc1: 95%
O=C(NCCCNc1nc(Nc2cccc(CN3CCOCC3)c2)ncc1C1CC1)C1CCC1: 98%

Consider the record given below.
Prompt: Provide only the value of recorded residual activity for CC1=C(CO)C(=O)O[C@@H]([C@@H](C)[C@H]2CC[C@H]3[C@@H]4C[C@H]5O[C@]56[C@@H](O)C=CC(=O)[C@]6(C)C4CC[C@]23C)C1 (stereo not given in full)
Response: 112%

---

# measured-on: IRAK1 (human)
# assay-remarks: radiometric filter-binding kinase assay
# settings: compound 10.0 µM
Let's look at some molecules and their measured residual activity.
Give your result in % as a bare value.

CCn1c(-c2nonc2N)nc2cncc(CNC3CCNCC3)c21: 75
CC1=C(CO)C(=O)O[C@@H]([C@@H](C)[C@H]2CC[C@H]3[C@@H]4C[C@H]5O[C@]56[C@@H](O)C=CC(=O)[C@]6(C)C4CC[C@]23C)C1 (some centres not stated): 100
CCNc1nc(Nc2cc(F)c(C(=O)N3CCOCC3)cc2OC)ncc1C(F)(F)F: 93
Cc1nc(-c2ccc(OCC(C)C)c(C#N)c2)sc1C(=O)O: 102
NCC(=O)Nc1ccc(-n2nc(C(F)(F)F)cc2-c2ccc3c(ccc4ccccc43)c2)cc1: 80

Prompt: Provide only the value of recorded residual activity for Nc1cccc2c1CN(C1CCC(=O)NC1=O)C2=O (configuration not stated)
Response: 101

Prompt: Provide only the value of recorded residual activity for O=C(N[C@@H](COc1ccc2[nH]c(=O)[nH]c2c1)c1ccccc1)c1cccn(Cc2ccc(F)c(F)c2)c1=O
Response: 108

---

Let's look at some compounds and their measured residual activity.
# measured-on: UniProt:P43405
# assay-remarks: radiometric filter-binding kinase assay
# settings: compound 10.0 µM
Give your result in % as a bare value.

NC(=O)c1c(NC(=O)C2CC2)sc2c1CCCC2: 106
O=C(NOCC(O)CO)c1ccc(F)c(F)c1Nc1ccc(I)cc1Cl (centres undefined): 77
N#Cc1c(C2CCNCC2)cc(-c2c(O)cccc2OCC2CC2)nc1N: 81

Consider the record given below.
Prompt: Provide only the value of recorded residual activity for COc1cc2ncn(-c3cc(OCc4ccccc4S(C)(=O)=O)c(C#N)s3)c2cc1OC
Response: 87

---

Let's look at some molecules and their measured residual activity.
# measured-on: MAPK10 (human) (UniProt P53779)
# Sequence (P53779 whole entry, looked up): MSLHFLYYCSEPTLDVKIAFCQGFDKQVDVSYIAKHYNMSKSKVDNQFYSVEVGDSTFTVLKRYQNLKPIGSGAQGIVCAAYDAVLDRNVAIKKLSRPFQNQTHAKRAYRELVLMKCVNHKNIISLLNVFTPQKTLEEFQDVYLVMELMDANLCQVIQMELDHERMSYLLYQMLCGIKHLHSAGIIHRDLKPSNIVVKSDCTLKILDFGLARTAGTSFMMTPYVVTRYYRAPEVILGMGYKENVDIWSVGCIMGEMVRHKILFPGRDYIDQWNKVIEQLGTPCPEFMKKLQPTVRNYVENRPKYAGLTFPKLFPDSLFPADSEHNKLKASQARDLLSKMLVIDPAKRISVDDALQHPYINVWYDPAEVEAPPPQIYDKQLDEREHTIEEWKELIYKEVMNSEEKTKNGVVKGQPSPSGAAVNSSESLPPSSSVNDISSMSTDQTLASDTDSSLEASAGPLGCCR
# assay-remarks: radiometric filter-binding kinase assay
# settings: compound 10.0 µM
Give your result in % as a bare value.

CCOC(=O)c1ccc(N2NC(=O)/C(=C/c3ccc([N+](=O)[O-])o3)C2=O)cc1: 79

Prompt: # return residual activity of CC1=C(CO)C(=O)O[C@@H]([C@@H](C)[C@H]2CC[C@H]3[C@@H]4C[C@H]5O[C@]56[C@@H](O)C=CC(=O)[C@]6(C)C4CC[C@]23C)C1 (stereo partly drawn) (system: MAPK10 (human) (UniProt P53779))
Response: 136

Prompt: # return residual activity of NC(=O)c1cc(-c2ccnc(NC3CCCCC3)c2)nc(N2CCNCC2)c1 (system: MAPK10 (human) (UniProt P53779))
Response: 31
